This listing pairs molecules with measured IC50.
TARGET_UNDER_TEST: H^+/K^+-ATPase (Sus scrofa)
Construct: The obtained microsomal fraction was used as proton, potassium-adenosine triphosphatase preparations
Sequence (P19156 whole entry): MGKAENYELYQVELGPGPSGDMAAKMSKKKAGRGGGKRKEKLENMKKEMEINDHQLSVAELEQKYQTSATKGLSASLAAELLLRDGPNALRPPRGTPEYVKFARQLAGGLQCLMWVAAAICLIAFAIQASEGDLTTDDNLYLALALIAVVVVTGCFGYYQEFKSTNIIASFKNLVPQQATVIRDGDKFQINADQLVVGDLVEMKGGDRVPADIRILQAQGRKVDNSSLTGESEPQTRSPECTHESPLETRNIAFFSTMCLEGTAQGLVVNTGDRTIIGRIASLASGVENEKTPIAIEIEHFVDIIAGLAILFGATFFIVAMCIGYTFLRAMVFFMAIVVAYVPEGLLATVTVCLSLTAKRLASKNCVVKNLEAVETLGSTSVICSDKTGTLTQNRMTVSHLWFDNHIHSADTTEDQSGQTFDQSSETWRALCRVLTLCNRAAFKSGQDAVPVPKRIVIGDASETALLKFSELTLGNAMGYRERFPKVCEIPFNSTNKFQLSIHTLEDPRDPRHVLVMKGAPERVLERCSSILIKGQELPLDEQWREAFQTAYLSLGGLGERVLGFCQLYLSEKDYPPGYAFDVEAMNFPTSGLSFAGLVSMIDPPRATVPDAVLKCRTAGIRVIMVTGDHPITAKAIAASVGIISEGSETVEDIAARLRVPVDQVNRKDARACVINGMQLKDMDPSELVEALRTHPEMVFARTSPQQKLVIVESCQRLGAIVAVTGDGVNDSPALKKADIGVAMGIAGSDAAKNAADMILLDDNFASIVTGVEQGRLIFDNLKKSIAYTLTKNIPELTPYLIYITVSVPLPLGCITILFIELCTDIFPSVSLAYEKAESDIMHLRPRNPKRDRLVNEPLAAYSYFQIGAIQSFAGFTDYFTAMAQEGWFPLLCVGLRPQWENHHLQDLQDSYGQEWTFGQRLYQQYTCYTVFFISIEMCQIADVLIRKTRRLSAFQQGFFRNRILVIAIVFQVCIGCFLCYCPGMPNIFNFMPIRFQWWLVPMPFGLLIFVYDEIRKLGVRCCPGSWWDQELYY
Sequence (P18434 whole entry partner): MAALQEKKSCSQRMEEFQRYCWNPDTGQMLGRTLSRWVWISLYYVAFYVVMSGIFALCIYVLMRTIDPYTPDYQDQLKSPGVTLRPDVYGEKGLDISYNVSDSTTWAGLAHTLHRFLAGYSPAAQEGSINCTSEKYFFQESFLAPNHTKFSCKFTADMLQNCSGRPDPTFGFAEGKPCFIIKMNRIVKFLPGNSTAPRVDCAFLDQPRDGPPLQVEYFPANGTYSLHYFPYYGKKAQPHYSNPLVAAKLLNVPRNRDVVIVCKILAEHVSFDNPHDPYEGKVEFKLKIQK
TEST_NAME: Proton potassium-adenosine triphosphatase (H+,K+-ATPase) inhibitory activity test
CONDITION_DESCRIPTION: swine gastric mucosa microsomal fraction, pH 6.5, 37° C.
MEASUREMENT_LABEL: IC50 (nM)

>>> print(df.to_string())
                                   molecule  measurement_label  observed_measurement
0  CNCc1cc(S(=O)(=O)c2cccc(C)c2)n(-c2cccnc2F)n1.Cl [Example 3, hydrochloride]               IC50                    88
1  CNCc1cc(S(=O)(=O)c2ccc(OC)cc2)n(-c2cccnc2F)n1.Cl [Example 2, hydrochloride]               IC50                   350
2  CNCc1cc(S(=O)(=O)c2ccc(F)cc2)n(-c2cccnc2F)n1.Cl [Example 1, hydrochloride]               IC50                   120
3  CNCc1cc(S(=O)(=O)c2cccc(C#N)c2)n(-c2cccnc2F)n1.Cl [Example 4, hydrochloride]               IC50                   230

----------
Test system: anesthetized rat
TEST_NAME: Histamine-stimulated acid secretion suppression test using anesthetized rat
Assay type: in vivo
CONDITION_DESCRIPTION: 1 mg/kg i.v., anesthetized SD rat, 3 hr after histamine
MEASUREMENT_LABEL: acid secretion inhibitory rate (%, 1 mg/kg, intravenous administration, rat) (%)

>>> df
                           molecular_string  observed_measurement
0  CNCc1cc(S(=O)(=O)c2cccc(C)c2)n(-c2cccnc2F)n1.Cl                    95
1  CNCc1cc(S(=O)(=O)c2cccc(C#N)c2)n(-c2cccnc2F)n1.Cl                    99
2  CNCc1cc(S(=O)(=O)c2ccc(OC)cc2)n(-c2cccnc2F)n1.Cl                    82
3  CNCc1cc(S(=O)(=O)c2ccc(F)cc2)n(-c2cccnc2F)n1.Cl                    98
